The measured values listed here are drawn from PubChem BioAssay (NCI).

System: RXF 393 renal
run-description: NCI tumour cell line growth inhibition, 48 h; in the data active means GI50 below about 0.43 µM; inactive means the rest
Respond using exactly one of the listed classes: active, inactive

Below, 5 compounds whose answers are already recorded.
N#CC1=C(N)Oc2c(sc3c(F)cccc23)C1c1ccc([N+](=O)[O-])cc1 (stereo unspecified) = active
O=c1cccc(C#CCCCCOC2CCCO2)o1 (stereo unspecified) = inactive
O=C(Oc1ccc([N+](=O)[O-])cc1)N1CCC(C(O)(c2ccc3c(c2)OCO3)c2ccc3c(c2)OCO3)CC1 = inactive
C=CC(=O)Nc1cc2c(Nc3ccc(OCc4ccccn4)c(Cl)c3)ncnc2cc1OCCN1CCOCC1 = inactive
COc1cc(/C=C2\C(=O)N(c3c(Cl)cccc3Cl)c3ccccc32)cc(OC)c1O = inactive

Asked: Call for entry `COc1ccc(OC)c(-c2nc3sccn3c2/C=C2/C(=O)Nc3ccccc32)c1` :
Given back: inactive

Asked: Now consider CN(C)CCCC1(c2ccc(F)cc2)OCc2cc(-c3ccc4cc[nH]c4c3)ccc21 (stereo unspecified) .
Given back: inactive

Asked: `C=CCSc1n[nH]c(-c2cccs2)n1` , same question.
Given back: inactive

Asked: Another compound: `COc1cc2cc(C(=O)O)[nH]c2cc1OCc1ccccc1`
Given back: inactive

Asked: Same read-out for Cc1cc(N2CCN(C)CC2)nc(NC2CCCC(Nc3ccnc4cc(Cl)ccc34)C2)n1 (stereo unspecified) ?
Given back: inactive

Asked: Could you do the same for `COC(=O)/C(=C/N1CCN(C(=O)c2ccco2)C1=S)C(C)=O` , please?
Given back: inactive

---

System: ACHN renal
run-description: NCI tumour cell line growth inhibition, 48 h
What TGI was measured for each of the following?
Give bare numbers, in µM.

Some solved cases for reference:
COc1ccc(OC)c(-c2nc3sccn3c2/C=C2/C(=O)Nc3ccccc32)c1 = 15.9
O=C1/C(=C\c2ccccc2)c2ccccc2N1Cc1ccccc1 = 25.1

Would you be so kind as to report TGI for each listed record?
1. O=C1Nc2ccccc2SC1C1SC(=S)N(Cc2ccccc2)C1=O (centres undefined)
2. O=C1c2cccc3c(N4CCN(c5ccc6c7c(cccc57)C(=O)N(CCN5CCNCC5)C6=O)CC4)ccc(c23)C(=O)N1CCN1CCNCC1

Given back:
20.3
22.5

---

Tested on: HOP-92 NSCLC
run-description: NCI tumour cell line growth inhibition, 48 h
reported-metric: TGI (µM)
Numbers only, in µM.

Worked set:
CCN(CC)CC(C)(C)C(=O)/C=C/c1ccc(C)cc1 = 8.45
O=C(c1cccs1)c1c(C(F)(F)F)n([O-])c2cc(F)c(F)cc2[n+]1=O = 4.24
O=C(NCCNCCO)c1ccc2oc3cc4ccccc4c(=O)n3c2c1 = 29.6
Clc1ccc2c(NCCNc3nc(-c4ccccc4)cc(-c4ccccc4)n3)ccnc2c1 = 3.14
C=CCC1(O)c2cccc(O)c2C(=O)c2c(O)cccc21 = 88.9

List TGI for every entry below, keeping the order given.
1. COc1cc(/C=C2\C(=O)N(c3c(Cl)cccc3Cl)c3ccccc32)cc(OC)c1O
2. CC1C(c2ccccc2O)c2cc3c(cc2OC1N1CCCC1)OCO3 (stereo not given)
3. O=c1cccc(C#CCCCCOC2CCCO2)o1 (stereo not given)
4. N#Cc1ccc(-n2cnc(NC(=O)[C@H]3CCN(C#N)C3)c2)cc1
5. Cc1ccc2c(c1)NC(=O)C(N=[N+]=[N-])(c1ccccc1)C2=O (stereo not given)
6. O=[N+]([O-])c1ccc(N(CCO)CCO)c2c1no[n+]2[O-]

Given back:
1. 11
2. 69.3
3. 11.5
4. 6.98
5. 85.2
6. 5.82

Each molecule below has a recorded value; state its TGI.
1. Nc1nc(Cl)c2ncn(Cc3ccccc3CCl)c2n1
2. COc1ccc2cc(C(=O)/C=C/c3ccc(OC)c(OC)c3)ccc2c1
3. O=C1c2c(Br)sc(Br)c2[C@H]2NC(=S)O[C@@H]12
4. C=C1C(=O)C=C2C=C3C(=O)C(C)(C)C[C@]3(O)C12C (stereo not given in full)
5. Cc1oc2c(c1C(=O)c1ccccc1)C(=O)c1ccccc1C2=O
6. C=CC(=O)Nc1cc2c(Nc3ccc(OCc4ccccn4)c(Cl)c3)ncnc2cc1OCCN1CCOCC1

Given back:
1: 31.1; 2: 80.3; 3: 33.8; 4: 3.24; 5: 4.65; 6: 9.06
